Tested on: Saccharomyces cerevisiae
procedure_summary: protein stability index of tFT-peptide fusion (C-terminal peptide) (PSI (0-1 scale)); higher = more stable (slower turnover)
measurement_conditions: genetic background: doa10 deletion; temperature: 30 C
Use 0.3 as the dividing line for protein stability index, with the line itself on the Met side and lower values as Not met.

Entry SCIVRTLVPCPS : is its protein stability index no less than 0.3?
Not met

Entry RWRDGVAWVVVC : is its protein stability index no less than 0.3?
Not met

Entry VHNIDLFVVCYI : is its protein stability index no less than 0.3?
Not met

Entry PPPSRRLTLRLA : is its protein stability index no less than 0.3?
Not met

Entry VFILGFLCLLFF : is its protein stability index no less than 0.3?
Met

Entry FALFLFFGPLIV : is its protein stability index no less than 0.3?
Met

Entry FSSWPFFSFYLS : is its protein stability index no less than 0.3?
Met

Entry GFSSRWLMQYMV : is its protein stability index no less than 0.3?
Met

Entry SHWSMQATLQLV : is its protein stability index no less than 0.3?
Met

Entry AYFPSQRVHHLM : is its protein stability index no less than 0.3?
Not met

---

System: Saccharomyces cerevisiae
procedure_summary: protein stability index of tFT-peptide fusion (C-terminal peptide) (PSI (0-1 scale)); higher = more stable (slower turnover)
measurement_conditions: genetic background: wild type; temperature: 30 C
Use 0.7 as the dividing line for protein stability index, with the line itself on the fulfilled side and lower values as not fulfilled.

Entry VSRPRSLLVPNF : is its protein stability index no less than 0.7?
not fulfilled

Entry QESPERRGVPPF : is its protein stability index no less than 0.7?
not fulfilled

Entry PRIPHPPRPRPP : is its protein stability index no less than 0.7?
not fulfilled

Entry RWELASKCRLCV : is its protein stability index no less than 0.7?
not fulfilled

Entry GGVFWEEGAAER : is its protein stability index no less than 0.7?
fulfilled

Entry IINKRITKETDE : is its protein stability index no less than 0.7?
not fulfilled

Entry RSGGGRRGVGWV : is its protein stability index no less than 0.7?
not fulfilled

Entry FGFHSLSISFFM : is its protein stability index no less than 0.7?
not fulfilled

Entry DLGARWLFLLQT : is its protein stability index no less than 0.7?
not fulfilled

Entry AYLCLLPPFFTV : is its protein stability index no less than 0.7?
not fulfilled

Entry GWVSCCVWSFLV : is its protein stability index no less than 0.7?
not fulfilled

Entry LFFFFLPHLILL : is its protein stability index no less than 0.7?
not fulfilled

Entry LTPCPHATPEPP : is its protein stability index no less than 0.7?
not fulfilled

Entry VSVGLGRCSIFW : is its protein stability index no less than 0.7?
fulfilled

Entry PPALSLPAPLLP : is its protein stability index no less than 0.7?
not fulfilled

Entry SDSAPSPPAFLP : is its protein stability index no less than 0.7?
not fulfilled

Entry RESVSPCLVGAV : is its protein stability index no less than 0.7?
not fulfilled

Entry RPLPPPPPPRSP : is its protein stability index no less than 0.7?
fulfilled

Entry LTKHQITKKAER : is its protein stability index no less than 0.7?
fulfilled

Entry VAGLQGGSGEGG : is its protein stability index no less than 0.7?
not fulfilled

Entry PPLPAPGPIFLP : is its protein stability index no less than 0.7?
not fulfilled

Entry EGLNASGGGSGG : is its protein stability index no less than 0.7?
not fulfilled

Entry LSARAKRTVTFL : is its protein stability index no less than 0.7?
not fulfilled

Entry LPTSSTRVEFSV : is its protein stability index no less than 0.7?
not fulfilled

Entry YPLISVSLPCPS : is its protein stability index no less than 0.7?
not fulfilled

Entry QDERPLAPRTRW : is its protein stability index no less than 0.7?
fulfilled

Entry SRSVLLCFCWLC : is its protein stability index no less than 0.7?
not fulfilled

Entry LFLYLGSGARAV : is its protein stability index no less than 0.7?
fulfilled

Entry LWVSGARTTGYF : is its protein stability index no less than 0.7?
fulfilled

Entry APAFLSLVSFAS : is its protein stability index no less than 0.7?
not fulfilled

Entry CLFPPTARHSFP : is its protein stability index no less than 0.7?
fulfilled

Entry STPRLERDGTTI : is its protein stability index no less than 0.7?
not fulfilled

Entry RYGHSVLQSGIS : is its protein stability index no less than 0.7?
fulfilled

Entry LGWLCWQFFGGT : is its protein stability index no less than 0.7?
fulfilled

Entry TEEVRVRVQTEL : is its protein stability index no less than 0.7?
not fulfilled

Entry MPFYPSLLTSLL : is its protein stability index no less than 0.7?
not fulfilled

Entry GPCSSMFGLRYT : is its protein stability index no less than 0.7?
not fulfilled

---

System: Saccharomyces cerevisiae
procedure_summary: protein stability index of tFT-peptide fusion (C-terminal peptide) (PSI (0-1 scale)); higher = more stable (slower turnover)
measurement_conditions: genetic background: das1 deletion; temperature: 30 C
Consider the following sequences; for each one, report its protein stability index.
Returns: the value as a bare number; no unit string appended.

Write down protein stability index measured for item YEEALKLGWDKN [OYE2 C-terminal 12 aa]
0.735

Write down protein stability index measured for item ITRTRLDSFVKT [YBR072C-A C-terminal 12 aa]
0.696

Write down protein stability index measured for item PQMARKQRGHIG [SDS23 C-terminal 12 aa]
0.678

Write down protein stability index measured for item AGTDKSQRCAIM [GIS4 C-terminal 12 aa]
0.758

Write down protein stability index measured for item AANAEILSKINK [POX1 C-terminal 12 aa]
0.713

Write down protein stability index measured for item QKENQYHPRRNQ [YML009W-B C-terminal 12 aa]
0.712

---

System: Saccharomyces cerevisiae
procedure_summary: protein stability index of tFT-peptide fusion (C-terminal peptide) (PSI (0-1 scale)); higher = more stable (slower turnover)
measurement_conditions: genetic background: wild type; temperature: 30 C
Consider the following sequences; for each one, report its protein stability index.
Returns: the value as a bare number; no unit string appended.

Write down protein stability index measured for item GFWSRIGDLFRG
0.698

Write down protein stability index measured for item TPLVLTLLTRRP
0.709

Write down protein stability index measured for item APLRAPYPPPPY
0.715

Write down protein stability index measured for item IKYEKENNINKI
0.679

Write down protein stability index measured for item CLAPSIPPPLSS
0.702

Write down protein stability index measured for item PVICFTSYPDRQ
0.7

Write down protein stability index measured for item SPLPRLPPGPLP
0.68

Write down protein stability index measured for item GGEVPFRLCRLW
0.691

Write down protein stability index measured for item SPCLLTLPVPFL
0.695

Write down protein stability index measured for item LPPPSPPPIPSP
0.688

Write down protein stability index measured for item PTPTTSPASRQN
0.682

Write down protein stability index measured for item PPAPSSLTASPF
0.71

---

Tested on: Saccharomyces cerevisiae
procedure_summary: protein stability index of tFT-peptide fusion (C-terminal peptide) (PSI (0-1 scale)); higher = more stable (slower turnover)
measurement_conditions: genetic background: wild type; temperature: 30 C
Consider the following sequences; for each one, report its protein stability index.

Fetch value of protein stability index on Saccharomyces cerevisiae for GSSVPLDLTLFT [VRP1 C-terminal 12 aa] .
0.714

Fetch value of protein stability index on Saccharomyces cerevisiae for MPGGMPGMPGMM [HSP60 C-terminal 12 aa] .
0.709

Fetch value of protein stability index on Saccharomyces cerevisiae for NELRMSSSSLTN [VHS1 C-terminal 12 aa] .
0.693

Fetch value of protein stability index on Saccharomyces cerevisiae for TQSTVIATTSSV [NDL1 C-terminal 12 aa] .
0.694

Fetch value of protein stability index on Saccharomyces cerevisiae for KEESGTTSLPTI [GGA1 C-terminal 12 aa] .
0.704

---

Tested on: Saccharomyces cerevisiae
procedure_summary: protein stability index of tFT-peptide fusion (C-terminal peptide) (PSI (0-1 scale)); higher = more stable (slower turnover)
measurement_conditions: genetic background: wild type; temperature: 30 C
recorded_metric: protein stability index
Returns: the value as a bare number; no unit string appended.

Write down protein stability index measured for item PPYSPSPRDPFA
0.713

Write down protein stability index measured for item PMPGATDCQRGC
0.615

Write down protein stability index measured for item LSCSPVFFPLQP
0.69

Write down protein stability index measured for item SLIPLLPPRSLS
0.594

Write down protein stability index measured for item ALESHFMVPSFP
0.693

Write down protein stability index measured for item SCDIFIYTHLVS
0.612

Write down protein stability index measured for item PCPPHILAPPPS
0.713

Write down protein stability index measured for item RDPPLPRRLPSL
0.706

Write down protein stability index measured for item KGWGDGPGSYVN
0.68

Write down protein stability index measured for item DAVVPSSTVPLL
0.7

Write down protein stability index measured for item PLSCDSPFVNPT
0.737

Write down protein stability index measured for item PESPLFPPLLPS
0.66

Write down protein stability index measured for item VRRSGMNIVVLP
0.639

Write down protein stability index measured for item GAWVAVTWAAGL
0.729

Write down protein stability index measured for item RGGCLPTCPQET
0.652

Write down protein stability index measured for item LWWTRVILYGYI
0.387

Write down protein stability index measured for item RIVQQATHVREH
0.787

Write down protein stability index measured for item VFRGGGAVGSVR
0.683

Write down protein stability index measured for item VGGGACVWSRRR
0.698

Write down protein stability index measured for item SNCLKHAYTTRT
0.66

Write down protein stability index measured for item PPPRPRLSRLLH
0.611

Write down protein stability index measured for item GGCLSVLGLGSV
0.688

Write down protein stability index measured for item AVGLCGARSLGG
0.634

Write down protein stability index measured for item GSSRRWPGGRTI
0.671

Write down protein stability index measured for item VWGVRVVCGFTV
0.533

Write down protein stability index measured for item ISQAIMTNPIKE
0.598

Write down protein stability index measured for item SVKHTFAHSVNS
0.644

Write down protein stability index measured for item RNIQKKKKIQHI
0.514

Write down protein stability index measured for item LFFASFLLIGPF
0.393

Write down protein stability index measured for item IGRWGVRWKAVG
0.512

Write down protein stability index measured for item PCAPPTPAPLHP
0.669

Write down protein stability index measured for item GGAVRSGRLFCC
0.648

Write down protein stability index measured for item ESLVSFTRPFSR
0.748

Write down protein stability index measured for item FLTCTTSLPFVP
0.728

Write down protein stability index measured for item KIENQKKRLQRT
0.708

Write down protein stability index measured for item GIRAEPSGGQAE
0.692

Write down protein stability index measured for item PPPLSPSTSDHP
0.652

Write down protein stability index measured for item PGWDSHRKILSQ
0.68

Write down protein stability index measured for item LRHLPRDVPSYI
0.705

Write down protein stability index measured for item LSLAPPPLLHHL
0.664

Write down protein stability index measured for item SSKVFCRVAKRE
0.724

Write down protein stability index measured for item LKSSREKRDMIG
0.578

Write down protein stability index measured for item LLILIVNLRRIG
0.281

Write down protein stability index measured for item PPSVILTSASSR
0.721

Write down protein stability index measured for item TRRAAARAVSAR
0.7

Write down protein stability index measured for item RGGRLQVGMEAV
0.665

Write down protein stability index measured for item VGVFRCLPGQVG
0.677

Write down protein stability index measured for item RVIVRGREIEIV
0.678

Write down protein stability index measured for item SIQVFDTYIITD
0.697
